- ASSAYED SYSTEM: ER-α (Homo sapiens)
- Sequence (P03372 1-595): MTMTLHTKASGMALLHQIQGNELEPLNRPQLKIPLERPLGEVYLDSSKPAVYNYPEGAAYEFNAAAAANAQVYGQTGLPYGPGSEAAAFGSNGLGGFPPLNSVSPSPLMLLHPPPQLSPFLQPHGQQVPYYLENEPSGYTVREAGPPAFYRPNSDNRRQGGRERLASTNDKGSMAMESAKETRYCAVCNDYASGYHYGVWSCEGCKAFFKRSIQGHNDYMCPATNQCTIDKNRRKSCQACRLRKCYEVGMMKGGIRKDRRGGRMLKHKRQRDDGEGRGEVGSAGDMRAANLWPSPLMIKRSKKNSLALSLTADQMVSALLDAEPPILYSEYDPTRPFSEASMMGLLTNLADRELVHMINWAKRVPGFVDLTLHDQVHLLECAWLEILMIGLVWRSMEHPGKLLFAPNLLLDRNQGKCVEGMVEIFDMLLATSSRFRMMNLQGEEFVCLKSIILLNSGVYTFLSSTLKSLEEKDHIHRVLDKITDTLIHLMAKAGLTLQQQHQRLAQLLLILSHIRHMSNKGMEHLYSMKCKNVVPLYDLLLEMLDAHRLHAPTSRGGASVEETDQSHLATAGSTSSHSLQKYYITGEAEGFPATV
- ASSAY INFO: ER-α agonist activity
pEC50: −log10 of the molar value.
PROPERTY MEASURED: pEC50

Inquiry: Answer with the recorded pEC50 for the compound listed here: C[C@]12CCc3c(ccc4ccc(O)cc34)[C@@H]1C[C@@H](O)C2 [Compound 205b]
Reply text: < 5.52
